- tested.target: human CD33 S131A (human, UniProt P20138 18-364)
- Sequence (P20138 18-364 S131A limits assumed): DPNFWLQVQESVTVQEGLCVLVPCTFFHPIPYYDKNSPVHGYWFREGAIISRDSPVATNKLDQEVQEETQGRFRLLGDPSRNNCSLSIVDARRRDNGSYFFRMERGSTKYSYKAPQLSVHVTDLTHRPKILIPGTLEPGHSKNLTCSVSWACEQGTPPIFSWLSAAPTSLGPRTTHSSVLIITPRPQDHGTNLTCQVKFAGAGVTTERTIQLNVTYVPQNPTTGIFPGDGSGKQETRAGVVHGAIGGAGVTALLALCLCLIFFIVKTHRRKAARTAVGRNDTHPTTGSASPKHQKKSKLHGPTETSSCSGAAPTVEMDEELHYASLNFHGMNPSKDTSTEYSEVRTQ
- assay.name: flow cytometry on HEK293-T, alanine scan
recorded.endpoint: Mean % WT Binding
Don't forget the unit after the number, please.

Here's what some known entries look like.
Refmab #1 (antibody, V domains shown, The alanine scan used IgG or Fab; also called hP67.6) VH: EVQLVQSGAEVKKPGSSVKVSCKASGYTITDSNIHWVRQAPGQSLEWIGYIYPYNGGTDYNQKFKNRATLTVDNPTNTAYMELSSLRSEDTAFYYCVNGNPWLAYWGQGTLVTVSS VL: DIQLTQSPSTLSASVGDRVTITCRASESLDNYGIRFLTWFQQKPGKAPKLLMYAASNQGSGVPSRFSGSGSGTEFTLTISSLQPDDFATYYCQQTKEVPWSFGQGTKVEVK : 85.9 % WT binding
Refmab #4 (antibody, V domains shown, The alanine scan used IgG or Fab) VH: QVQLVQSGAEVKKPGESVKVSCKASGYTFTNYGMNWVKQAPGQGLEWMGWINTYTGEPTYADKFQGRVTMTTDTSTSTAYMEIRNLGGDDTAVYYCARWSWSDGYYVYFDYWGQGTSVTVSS VL: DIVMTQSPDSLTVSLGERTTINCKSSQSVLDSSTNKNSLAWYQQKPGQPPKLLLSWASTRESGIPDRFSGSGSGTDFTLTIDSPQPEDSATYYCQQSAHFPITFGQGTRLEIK : 134 % WT binding
Refmab #3 (antibody, V domains shown, The alanine scan used IgG or Fab) VH: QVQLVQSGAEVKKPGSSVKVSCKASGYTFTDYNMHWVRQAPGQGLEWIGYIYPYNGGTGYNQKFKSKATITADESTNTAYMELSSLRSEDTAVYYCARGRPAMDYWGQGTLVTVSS VL: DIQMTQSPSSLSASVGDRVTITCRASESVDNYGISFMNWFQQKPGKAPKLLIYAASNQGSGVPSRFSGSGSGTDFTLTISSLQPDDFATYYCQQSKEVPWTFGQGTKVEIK : 117 % WT binding

Continue with the binder presented below.
Prompt: Which Mean % WT Binding reading was recorded for the binder Refmab #2 (antibody, V domains shown, The alanine scan used IgG or Fab) VH: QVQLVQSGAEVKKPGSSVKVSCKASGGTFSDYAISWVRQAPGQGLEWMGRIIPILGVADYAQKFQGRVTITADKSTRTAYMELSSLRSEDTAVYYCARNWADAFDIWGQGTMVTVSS VL: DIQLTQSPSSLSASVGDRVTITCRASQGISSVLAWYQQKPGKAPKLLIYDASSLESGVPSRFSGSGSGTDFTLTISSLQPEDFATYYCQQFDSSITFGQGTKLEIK ?
Completion: 123 % WT binding
